EXPERIMENTAL TARGET: T1, murine PILRA, ectopically expressed on 293 cells (murine, UniProt Q2YFS3 32-302)
T1 construct: also called mA
T1 sequence (Q2YFS3 32-302): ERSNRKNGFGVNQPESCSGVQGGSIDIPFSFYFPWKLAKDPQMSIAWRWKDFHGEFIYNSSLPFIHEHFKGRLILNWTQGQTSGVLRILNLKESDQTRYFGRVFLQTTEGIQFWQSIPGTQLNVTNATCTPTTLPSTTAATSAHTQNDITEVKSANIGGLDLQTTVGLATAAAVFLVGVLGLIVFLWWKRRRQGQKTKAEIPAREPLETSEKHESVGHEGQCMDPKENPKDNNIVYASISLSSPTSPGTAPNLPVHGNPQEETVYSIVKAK
ASSAY NOTES: flow cytometry, 293 cells expressing target
PARAMETER: binding result

Example cases with answers are listed next.
Look up and report measured binding result for this entry: E6 (antibody, V domains shown, phage campaign) VH: QVQLVQSGAEVKKPGASVKVSCKASGGTFSSYAISWVRQAPGQGLEWMGWINPNSGGTNFAQKFQGRVTMTRDTSTSTVYMELSSLRSEDTAVYYCARGSGSYPLDYWGRGTLVTVSS VL: DIQMTQSPSSLSASVGDRVTITCRASQDISTWLAWYQQKPGKAPKLLIYDASSLESGVPSRFSGSGSGTDFTLTISSLQPEDFATYYCQQTYSAPYTFGQGTKLEIK no binding

Look up and report measured binding result for this entry: A15 (antibody, V domains shown, phage campaign) VH: QVQLVQSGAEVKKPGASVKVSCKASGGTFSNYGLTWVRQAPGQGLEWMGWINLNSGGTYYAQKFQGRVTMTRDTSTSTVYMELSSLRSEDTAVYYCARDRYSSGWYEGDAFDIWGQGTMVTVSS VL: DIQMTQSPSSLSASVGDRVTITCRASQGISNWLAWYQQKPGKAPKLLIYAASSLQSGVPSRFSGSGSGTDFTLTISSLQPEDFATYYCQQSYSTPWTFGPGTKVDIK no binding

Look up and report measured binding result for this entry: D7 (antibody, V domains shown, second hybridoma campaign) VH: QVQLKESGPGLVAPSQSLSITCTVSGFSLTSYAISWVRQPPGKGLEWLGIIWTGGDTNYNSGLKSRLSITKDNSKSQVFLKMNSLQTDDTSRYYCARNSLFYGITPYYFDYWGQGTTLTVSS VL: DIVLTQSPATLSVTPGDSVSLSCRASQSIRNDLHWYQQKSHESPRLLIKYASQSISGIPSRFSGSGSGTDFTLTINVLETEDFGMYFCQQSNGWPLTFGAGTKLELK no binding

Look up and report measured binding result for this entry: D6 (antibody, V domains shown, second hybridoma campaign; same VH/VL as D8) VH: EVQLQQSGPELVKPGASVKMSCKASGYTFTDYYMDWVKQSHGESFEWIGRVNPYTGDSSYNQKFKGKATLTVDKSSNTAYLEFNSLTSEGSAVYYCARSDGYHYKYAMDYWGQGTSVTVSS VL: DVVMTQTPLSLPVSLGDQASISCRSSQSLVHSTGNTYLHWYLQKPGQSPNLLIYKISNRFSGVPDRFSGSGSGTDFTLKISRVEAEDLGVYFCSQSTHVPYTFGGGTKLEIK no binding

Please look at the following binder next.
Look up and report measured binding result for this entry: D3 (antibody, V domains shown, second hybridoma campaign) VH: QVQLQQPGADLVKPGASVKVSCKTSGYSFTSYWIHWVKQRPGQGLEWIGRVHPSDSDTDYSQKFKGKATLTVDDSSSTVYMQLTNLTSEDSAVYYCAIEWGYLFDYWGQGTTLSVSS VL: DIVLTQSPISLAVSLGQRATISCWASQSVSTSSYSYVHWYQQKPGQPPKLLIKYASNLDSGVPARFSGSGSGTDFTLNIHPVDEEDTATYYCHHNWEIPYTFGGGTKLEIK no binding
